ASSAY: Second PK study: daily oral dose for 5 days, two formulations
Assay type: in vivo, female Swiss Albino mice
COND: female, Swiss Albino, mouse, plasma, po, 10 mg/kg, day 5, daily oral 10 mg/kg, Formulation 1, female mice, AUC0-24 h
Protocol: In a second study female Swiss Albino mice were administered daily oral dose of 5, 7.5, or 10 mg/kg of the compound of formula (I) for 5 days. […] PK samples were collected on day 5 for groups 1 to 6. Formulation 1 consisted of DMSO, cremophor EL, and 5% mannitol in water (10/10/80; v/v/v). Formulation 2 consisted of ethanol, PEG 400, and citric acid 20 mM (10/10/80; v/v/v). […] PK parameters were calculated using Phoenix® WinNonLin 6.4. […]
OBSERVATION TYPE: AUC(0-t) (µg·h/mL)

{"COMPOUND": "COc1cc(N2CCNCC2)ccc1Nc1ncc2c(n1)-n1ccc(C(=O)Nc3c(C)cccc3C)c1CC2 [compound of formula (I)]", "OBSERVATION TYPE": "AUC(0-t)", "RECORDED VALUE": 0.563}

###

ASSAY: First PK study: single oral dose, two formulations
Format: in vivo, female Swiss Albino mice
COND: female, Swiss Albino, mouse, plasma, po, 7.5 mg/kg, single oral 7.5 mg/kg, Formulation 2, female mice, based on i.v. exposure; read-out: F (%)

{"MOLECULE": "COc1cc(N2CCNCC2)ccc1Nc1ncc2c(n1)-n1ccc(C(=O)Nc3c(C)cccc3C)c1CC2", "UNIT ABBREV": "%", "bioavailability": 88}

###

ASSAY: First PK study: single oral dose, two formulations
Assay type: in vivo, female Swiss Albino mice
COND: female, Swiss Albino, mouse, plasma, po, 7.5 mg/kg, single oral 7.5 mg/kg, Formulation 1, female mice; read-out: Apparent T1/2 (converted)

{"MOLECULE": "COc1cc(N2CCNCC2)ccc1Nc1ncc2c(n1)-n1ccc(C(=O)Nc3c(C)cccc3C)c1CC2", "half-life (h)": 3.23}

###

ASSAY: Second PK study: daily oral dose for 5 days, two formulations
Format: in vivo, female Swiss Albino mice
COND: female, Swiss Albino, mouse, plasma, po, 10 mg/kg, day 5, daily oral 10 mg/kg, Formulation 2, female mice

{"MOLECULE": "COc1cc(N2CCNCC2)ccc1Nc1ncc2c(n1)-n1ccc(C(=O)Nc3c(C)cccc3C)c1CC2", "UNIT ABBREV": "ng/mL", "Cmax": 56.5}

###

ASSAY: First PK study: single oral dose, two formulations
Assay type: in vivo, female Swiss Albino mice
COND: female, Swiss Albino, mouse, plasma, po, 5 mg/kg, single oral 5 mg/kg, Formulation 2, female mice, AUC0-24 h
Description: Plasma samples were collected on day 1 for Groups 1 to 6. Formulation 1 consisted of DMSO, cremophor EL, and 5% mannitol in water (10/10/80; v/v/v). Formulation 2 consisted of ethanol, PEG 400, and citric acid 20 mM (10/10/80; v/v/v). […] In each of the three studies blood was collected via the sephanous vein into K2-EDTA tubes kept on ice until centrifugation at 4° C. Plasma was stored at ap-proximately-80° C. […] PK parameters were calculated using Phoenix® WinNonLin 6.4. […]
OBSERVATION TYPE: AUC(0-t)

{"MOLECULE": "COc1cc(N2CCNCC2)ccc1Nc1ncc2c(n1)-n1ccc(C(=O)Nc3c(C)cccc3C)c1CC2 [compound of formula (I)]", "OBSERVATION TYPE": "AUC(0-t)", "RECORDED VALUE": "1120 ng·h/mL"}

###

ASSAY: Second PK study: daily oral dose for 5 days, two formulations
Assay type: in vivo, female Swiss Albino mice
COND: female, Swiss Albino, mouse, plasma, po, 10 mg/kg, day 5, daily oral 10 mg/kg, Formulation 2, female mice, based on iv exposure; read-out: F (%)
Method: In a second study female Swiss Albino mice were administered daily oral dose of 5, 7.5, or 10 mg/kg of the compound of formula (I) for 5 days. […] PK samples were collected on day 5 for groups 1 to 6. Formulation 1 consisted of DMSO, cremophor EL, and 5% mannitol in water (10/10/80; v/v/v). Formulation 2 consisted of ethanol, PEG 400, and citric acid 20 mM (10/10/80; v/v/v). […] PK parameters were calculated using Phoenix® WinNonLin 6.4. […]

{"COMPOUND": "COc1cc(N2CCNCC2)ccc1Nc1ncc2c(n1)-n1ccc(C(=O)Nc3c(C)cccc3C)c1CC2 [compound of formula (I)]", "UNIT ABBREV": "%", "bioavailability": 31}

###

ASSAY: Second PK study: daily oral dose for 5 days, two formulations
Format: in vivo, female Swiss Albino mice
COND: female, Swiss Albino, mouse, plasma, po, 7.5 mg/kg, day 5, daily oral 7.5 mg/kg, Formulation 1, female mice

{"COMPOUND": "COc1cc(N2CCNCC2)ccc1Nc1ncc2c(n1)-n1ccc(C(=O)Nc3c(C)cccc3C)c1CC2 [compound of formula (I)]", "Cmax, ng/mL": 45.2}

###

ASSAY: Third PK study: intravenous dose on day 1 or on day 6 after 5 days oral dosing
Type: in vivo, female Swiss Albino mice
COND: female, Swiss Albino, mouse, plasma, iv, 5 mg/kg, Group 1, Day 1: single 5 mg/kg i.v., female mice

{"MOLECULE": "COc1cc(N2CCNCC2)ccc1Nc1ncc2c(n1)-n1ccc(C(=O)Nc3c(C)cccc3C)c1CC2", "AUC(0-t)": "1400 ng·h/mL"}

###

ASSAY: Third PK study: intravenous dose on day 1 or on day 6 after 5 days oral dosing
Type: in vivo, female Swiss Albino mice
COND: female, Swiss Albino, mouse, plasma, iv, 5 mg/kg, Group 1, Day 1: single 5 mg/kg i.v., female mice
Description: In a third study female Swiss Albino mice were administered intravenously (bolus, 5 mL/kg) dose of 5 mg/kg of the compound of formula (I). Group 1 (9 mice) received a single i.v. dose administration on day 1. Group 2 (9 mice) received daily oral administration of 10 mg/kg of the compound of formula (I) from day 1 to day 5 following by a single i.v. dose administration of 5 mg/kg of the compound of formula (I) on day 6. […] PK parameters were calculated using Phoenix® WinNonLin 6.4. […]

{"MOLECULE": "COc1cc(N2CCNCC2)ccc1Nc1ncc2c(n1)-n1ccc(C(=O)Nc3c(C)cccc3C)c1CC2", "C0": "0.636 µg/mL"}

###

ASSAY: Second PK study: daily oral dose for 5 days, two formulations
Assay type: in vivo, female Swiss Albino mice
COND: female, Swiss Albino, mouse, plasma, po, 5 mg/kg, day 5, daily oral 5 mg/kg, Formulation 2, female mice
OBSERVATION TYPE: Cmax (ng/mL)

{"MOLECULE": "COc1cc(N2CCNCC2)ccc1Nc1ncc2c(n1)-n1ccc(C(=O)Nc3c(C)cccc3C)c1CC2", "OBSERVATION TYPE": "Cmax", "UNIT ABBREV": "ng/mL", "RECORDED VALUE": 47.4}

###

ASSAY: Second PK study: daily oral dose for 5 days, two formulations
Format: in vivo, female Swiss Albino mice
COND: Swiss Albino, mouse, plasma; day 5, daily oral 5 mg/kg, Formulation 1, female mice; read-out: Tmax

{"MOLECULE": "COc1cc(N2CCNCC2)ccc1Nc1ncc2c(n1)-n1ccc(C(=O)Nc3c(C)cccc3C)c1CC2 [compound of formula (I)]", "UNIT ABBREV": "h", "Tmax": 2}

###

ASSAY: Second PK study: daily oral dose for 5 days, two formulations
Format: in vivo, female Swiss Albino mice
COND: female, Swiss Albino, mouse, plasma, po, 10 mg/kg, day 5, daily oral 10 mg/kg, Formulation 2, female mice
OBSERVATION TYPE: AUC(0-inf) (ng·h/mL)

{"MOLECULE": "COc1cc(N2CCNCC2)ccc1Nc1ncc2c(n1)-n1ccc(C(=O)Nc3c(C)cccc3C)c1CC2", "RECORDED VALUE": 870}

###

ASSAY: First PK study: single oral dose, two formulations
Type: in vivo, female Swiss Albino mice
COND: female, Swiss Albino, mouse, plasma, po, 10 mg/kg, single oral 10 mg/kg, Formulation 2, female mice; read-out: Apparent T1/2 (converted)

{"MOLECULE": "COc1cc(N2CCNCC2)ccc1Nc1ncc2c(n1)-n1ccc(C(=O)Nc3c(C)cccc3C)c1CC2", "half-life [h]": 3.43}

###

ASSAY: Third PK study: intravenous dose on day 1 or on day 6 after 5 days oral dosing
Type: in vivo, female Swiss Albino mice
COND: female, Swiss Albino, mouse, plasma, iv, 5 mg/kg, 5 mg/kg i.v., both groups; read-out: volume of distribution
Method: In a third study female Swiss Albino mice were administered intravenously (bolus, 5 mL/kg) dose of 5 mg/kg of the compound of formula (I). Group 1 (9 mice) received a single i.v. dose administration on day 1. Group 2 (9 mice) received daily oral administration of 10 mg/kg of the compound of formula (I) from day 1 to day 5 following by a single i.v. dose administration of 5 mg/kg of the compound of formula (I) on day 6. […] PK parameters were calculated using Phoenix® WinNonLin 6.4. […]
OBSERVATION TYPE: Vd

{"MOLECULE": "COc1cc(N2CCNCC2)ccc1Nc1ncc2c(n1)-n1ccc(C(=O)Nc3c(C)cccc3C)c1CC2", "OBSERVATION TYPE": "Vd", "RECORDED VALUE": "15.4 to 19 L/kg"}
